Test system: PC12 cells
Test: Etoposide-induced apoptosis in PC12 cells, cell viability
Type: cell-based
Details: Rattus norvegicus, PC-12; 0.3 μM compound; etoposide-induced apoptosis, PC12 cells
assay.metric: viability at 0.3 µM (%)
One number for each entry, in %.

molecule: CCOC(=O)Nc1ccc(NCc2ccc(C)cc2C)nc1N [NK-65-3]
target.entity: PC12 cells
reading.unit: %
reported: 56.9
//
molecule: Nc1nc(NCc2ccc(F)cc2)ccc1NC(=O)OCC(Cl)(Cl)Cl [NK-46-1]
target.entity: PC12 cells
reading.unit: %
reported: 108
//
molecule: CCOC(=O)Nc1ccc(NCc2ccc(-c3ccccc3)cc2)nc1N [NK-57-3]
target.entity: PC12 cells
reading.unit: %
reported: 61.7
//
molecule: CCOC(=O)Nc1ccc(NCc2ccc(C(F)(F)F)cc2)nc1N [NK-40-3]
target.entity: PC12 cells
reading.unit: %
reported: 109
//
molecule: Nc1nc(NCc2ccc(F)cc2)ccc1NC(=O)Oc1ccccc1 [NK-41-1]
target.entity: PC12 cells
reading.unit: %
reported: 53.4

Report viability at 0.3 µM for each item below.
1. CCCCCCOC(=O)Nc1ccc(NCc2ccc(F)cc2)cc1N [NK-34-2]
2. CCOC(=O)Nc1ccc(NCc2ccc(-c3cccs3)cc2)nc1N [AM-11-3]
3. CCOC(=O)Nc1ccc(NCc2ccc3ccccc3c2)nc1N [AM-5-3]

Response:
1: 61; 2: 77.1; 3: 76.9

Report viability at 0.3 µM for each item below.
1. CCOC(=O)Nc1ccc(NCc2ccc(OC(F)(F)F)cc2)nc1N [JG-33-4]
2. CCOC(=O)Nc1ccc(NCc2ccccc2)nc1N [AM-2-3]

Response:
81.6
87.5

* * *

System: PC12 cells
Experiment: Etoposide-induced apoptosis in PC12 cells, cell viability
Format: cell-based
Details: Rattus norvegicus, PC-12; 0.3 μM compound; etoposide-induced apoptosis, PC12 cells
Consider the following compounds; for each one, report its viability at 0.3 µM.
Answers are plain numbers, in %.

Report viability at 0.3 µM for each item below.
1. Nc1nc(NCc2ccc(F)cc2)ccc1NC(=O)OCC1c2ccccc2-c2ccccc21
2. CCOC(=O)Nc1ccc(NCc2ccc(C(F)(F)F)cc2)nc1

Response:
63.9
54.1

Report viability at 0.3 µM for each item below.
1. CCOC(=O)Nc1ccc(NCc2ccc(SC(F)(F)F)cc2)nc1N
2. CCOC(=O)Nc1ccc(NCc2ccc(OC)cc2)nc1N

Response:
1. 92.6
2. 81.4

* * *

System: PC12 cells
Assay: Etoposide-induced apoptosis in PC12 cells, cell viability
Format: cell-based
Details: Rattus norvegicus, PC-12; 1 μM compound; etoposide-induced apoptosis, PC12 cells; read-out: % Viability 1 μM
Strictly below 70% in viability at 1 µM: 1 (yes). Otherwise: 0 (no).

A selection of reference data follows.
compound: CCOC(=O)Nc1ccc(NCc2ccc(C)cc2C)nc1N [NK-65-3]
class: 1 (yes)
--
compound: CCOC(=O)Nc1ccc(NCc2cccc(OC)c2)nc1N [NK-67-3]
class: 0 (no)
--
compound: CCOC(=O)Nc1ccc(NCc2ccc(F)cc2)nc1N [NK-1-4, reference compound]
class: 0 (no)
--
compound: CCOC(=O)Nc1ccc(NCc2ccccc2C(F)(F)F)nc1N [JG-34-4]
class: 0 (no)
--
compound: Nc1nc(NCc2ccc(F)cc2)ccc1NC(=O)OCc1ccccc1 [NK-10-1]
class: 1 (yes)

Request: Given Nc1nc(NCc2ccc(F)cc2)ccc1NC(=O)Oc1ccccc1 [NK-41-1] , is recorded viability at 1 µM strictly lower than 70%?
Response: 1 (yes)

Request: Given CC(C)COC(=O)Nc1ccc(NCc2ccc(F)cc2)nc1N [NK-8-1] , is recorded viability at 1 µM strictly lower than 70%?
Response: 1 (yes)

Request: Given CCOC(=O)Nc1ccc(N2CCOCC2)nc1N [JG-41-4] , is recorded viability at 1 µM strictly lower than 70%?
Response: 0 (no)

* * *

Consider the following molecules; for each one, report its viability at 0.3 µM.
System: PC12 cells
Experiment: Etoposide-induced apoptosis in PC12 cells, cell viability
Format: cell-based
Conditions: Rattus norvegicus, PC-12; 0.3 μM compound; etoposide-induced apoptosis, PC12 cells
Give bare numbers, in %.

In the examples that follow, each entry is paired with its recorded viability at 0.3 µM.
molecule: CCOC(=O)Nc1ccc(OCc2ccc(C(F)(F)F)cc2)nc1N [NK-60-3]
viability at 0.3 µM, %: 83.8

molecule: CCOC(=O)Nc1ccc(NCc2ccc(F)cc2F)nc1N [NK-64-3]
viability at 0.3 µM, %: 93

molecule: CCOC(=O)Nc1ccc(NCc2cccc(C)c2)nc1N [NK-66-3]
viability at 0.3 µM, %: 110

molecule: CCOC(=O)Nc1ccc(NCCc2ccccc2)nc1N [JG-36-4]
viability at 0.3 µM, %: 56.9

Next item in the queue.
Request: Enter measured viability at 0.3 µM, system PC12 cells, for the molecule shown: CCOC(=O)Nc1ccc(NCc2cccc(OC)c2)nc1N [NK-67-3]
Response: 48.6

* * *

Tested on: PC12 cells
Test: Etoposide-induced apoptosis in PC12 cells, cell viability
Type: cell-based
Conditions: Rattus norvegicus, PC-12; 1 μM compound; etoposide-induced apoptosis, PC12 cells; read-out: % Viability 1 μM
Consider the following molecules; for each one, report its viability at 1 µM.
In your response, put the unit directly after the numeric value.

In the examples that follow, each entry is paired with its recorded viability at 1 µM.
molecule: CCOC(=O)Nc1ccc(NCc2ccc(-c3cccs3)cc2)nc1N [AM-11-3]
viability at 1 µM: 89.8%
//
molecule: C=CCOC(=O)Nc1ccc(NCc2cccc(C(F)(F)F)c2)nc1N [NK-16-6]
viability at 1 µM: 78%
//
molecule: COC(=O)Nc1ccc(NCc2cccc(C(F)(F)F)c2)nc1N [NK-16-4]
viability at 1 µM: 46.7%
//
molecule: CCOC(=O)Nc1ccc(NCc2ccc(F)cc2)nc1 [NK-31-3]
viability at 1 µM: 109%
//
molecule: CCOC(=O)Nc1ccc(NCc2cccc(C)c2)nc1N [NK-66-3]
viability at 1 µM: 101%

Report viability at 1 µM for each item below.
1. C=CCOC(=O)Nc1ccc(NCc2ccc(Cl)cc2)nc1N [JG-4-5]
2. CCCCCCOC(=O)Nc1ccc(NCc2ccc(F)cc2)cc1N [NK-34-2]
3. CCOC(=O)Nc1ccc(NCc2ccc(Cl)cc2)nc1N [NK-4-3]
4. CCOC(=O)Nc1ccc(NCc2cccc(C(F)(F)F)c2)nc1N [NK-16-3]
5. CCOC(=O)Nc1ccc(NCc2ccc(F)cc2F)nc1N [NK-64-3]
6. CCOC(=O)Nc1ccc(NCc2cc(C(F)(F)F)cc(C(F)(F)F)c2)nc1N [NK-17-3]
7. CCOC(=O)Nc1ccc(NCc2ccccc2)nc1N [AM-2-3]
8. C=CCOC(=O)Nc1ccc(NCc2ccc(F)cc2)nc1N [NK-12-1]

Response:
1. 87.2%
2. 65.8%
3. 65.7%
4. 59.9%
5. 91%
6. 63.7%
7. 93.5%
8. 65.5%

Report viability at 1 µM for each item below.
1. CCOC(=O)Nc1ccc(NCc2ccc3ccccc3c2)nc1N [AM-5-3]
2. CCOC(=O)Nc1ccc(NC(C)c2ccccc2)nc1N (centres unmarked) [NK-52-3]
3. CCOC(=O)Nc1ccc(NCc2ccc(C)cc2)cc1N [JG-32-3]
4. CCCOC(=O)Nc1ccc(NCc2ccc(F)cc2)cc1N [NK-30-2]
5. Cc1ccc(OC(=O)Nc2ccc(NCc3ccc(F)cc3)cc2N)cc1 [JG-48-6]
6. C#CCOC(=O)Nc1ccc(NCc2ccc(F)cc2)nc1N [NK-45-1]
7. CCOC(=O)Nc1ccc(NCc2cc(F)cc(C(F)(F)F)c2)nc1N [JG-38-4]

Response:
1. 81.7%
2. 56.7%
3. 110%
4. 54.1%
5. 70%
6. 64.9%
7. 69.7%

* * *

Test system: PC12 cells
Assay: Etoposide-induced apoptosis in PC12 cells, cell viability
Format: cell-based
Details: Rattus norvegicus, PC-12; 1 μM compound; etoposide-induced apoptosis, PC12 cells; read-out: % Viability 1 μM
Strictly below 70% in viability at 1 µM: fulfilled. Otherwise: not fulfilled.

A selection of reference data follows.
molecule: CCOC(=O)Nc1ccc(NCc2ccc(C(F)(F)F)cc2)nc1 [AM-15-3]
class: fulfilled

molecule: Nc1nc(NCc2ccccc2C(F)(F)F)ccc1NC(=O)OCC(Cl)(Cl)Cl [JG-35-4]
class: not fulfilled

molecule: CCOC(=O)Nc1ccc(NCc2ccc(OC(F)(F)F)cc2)nc1N [JG-33-4]
class: not fulfilled

Request: Given COC(=O)Nc1ccc(NCc2ccc(F)cc2)nc1N [NK-3-1] , is recorded viability at 1 µM strictly lower than 70%?
Response: not fulfilled

Request: Given CCOC(=O)Nc1ccc(NCc2ccc(-c3ccccc3)cc2)nc1N [NK-57-3] , is recorded viability at 1 µM strictly lower than 70%?
Response: fulfilled

Request: Given CC(C)(C)OC(=O)Nc1ccc(NCc2ccc(F)cc2)nc1N [NK-13-1] , is recorded viability at 1 µM strictly lower than 70%?
Response: fulfilled

Request: Given CCOC(=O)Nc1ccc(OCc2ccc(C(F)(F)F)cc2)nc1N [NK-60-3] , is recorded viability at 1 µM strictly lower than 70%?
Response: not fulfilled
